Value source: paper PMC7377239

Readings of activity at 0.01 µM for the listed compounds
system: iCell cardiomyocytes (human iPSC-derived cardiomyocytes); assay: Intracellular Ca2+ flux / beating parameters in iCell cardiomyocytes (FLIPR tetra), 90 min or 24 h; format: cell-based; conditions: Homo sapiens, Cardiomyocyte, 24 h, 0.01 µM; 0.00 µM = 100.00; read-out: cm.amp.avg.24hrs
Structures can show the parent of a compound that is named as a salt.
Please respond with the number in % and leave the unit unwritten.

1. Oc1ccc(-c2cccc(Cl)c2)cc1Cl
93.8

Task: Given the compound COc1ccc(-c2cccc(Cl)c2)cc1Cl , what is its reported activity at 0.01 µM?
Output: 121

Task: // query: Clc1cccc(-c2cccc(Cl)c2)c1
Output: 137

Task: // query: O=S(=O)(O)Oc1ccc(-c2ccc(Cl)cc2)cc1 [4'-yl PCB 3 sulfate]
Output: 114

Task: // query: COc1ccc(-c2ccc(Cl)cc2)cc1
Output: 135

* * *

system: iCell endothelial cells (human iPSC-derived ECs); assay: High-content imaging cytotoxicity in iCell endothelial cells, 24 h; type: cell-based; details: Homo sapiens, Endothelial cell, iPSC-EC, 24 hr, 0.01 µM, 0.00 µM control = 100.00, read-out: endo.cyto.24hr
Counter-ions that a name gives are not always drawn.
result-type: viability at 0.01 µM (%)
Please respond with the number in % and leave the unit unwritten.

These recorded examples may help you get a feel for the data.
1. Oc1ccc(-c2cccc(Cl)c2)cc1Cl
99.5
2. O=C1C=CC(=O)C(c2ccc(Cl)cc2)=C1
90
3. Oc1cccc(-c2ccc(Cl)cc2)c1
93.4

Task: Given the compound Oc1cc(Cl)c(-c2cc(Cl)ccc2Cl)cc1Cl , what is its reported viability at 0.01 µM?
Output: 96.8

Task: // query: COc1ccc(-c2ccc(Cl)cc2)cc1
Output: 93.4

Task: // query: O=S(=O)(O)Oc1cc(Cl)ccc1-c1ccccc1 [2-yl PCB 3 sulfate]
Output: 93

Task: // query: O=S(=O)(O)Oc1ccc(-c2ccc(Cl)cc2)cc1 [4'-yl PCB 3 sulfate]
Output: 101

Task: // query: Clc1cccc(-c2cccc(Cl)c2)c1
Output: 99.3

* * *

System: HUVECs
Assay: Tube formation (tubulogenesis) assay in HUVECs, 18 h
Type: cell-based, human
Settings: Homo sapiens, HUVEC, 18 h, HUVECs, 0.01 µM, 0.00 µM = 100.00, read-out: huvec.tta.18hr
Method: Similar to the cultivation of iCell®-endothelial cells, HUVEC maintenance and experimentation are detailed elsewhere ([Iwata et al. 2017]). […] Tube formation assays were performed on Geltrex™ LDEV-free reduced growth factor basement membrane using both iCell®-endothelial cells and HUVECs in 384-well format exactly as detailed in Iwata et al. ([2017]). […] Images were analyzed with the angiogenesis module software within MetaXpress™ (Molecular Devices). […]
Where a name gives a salt, the structure may show the parent alone.
result-type: activity at 0.01 µM (%)
Please respond with the number in % and leave the unit unwritten.

These recorded examples may help you get a feel for the data.
1) Clc1ccc(-c2ccccc2)cc1 [PCB3]
68
2) Oc1ccc(-c2ccc(Cl)cc2)cc1 [4'-OH PCB3]
113
3) Oc1ccc(O)c(-c2ccc(Cl)cc2)c1 [2',5'-DiOH PCB3]
127
4) O=S(=O)(O)Oc1cc(Cl)ccc1-c1ccccc1 [2-yl PCB 3 sulfate]
108
5) O=S(=O)(O)Oc1ccc(-c2cccc(Cl)c2)cc1Cl [4-yl PCB 11 sulfate]
98.3
6) O=S(=O)(O)Oc1cc(Cl)c(-c2cc(Cl)ccc2Cl)cc1Cl [4-yl PCB 52 sulfate]
66.3

Task: Given the compound Clc1ccc(Cl)c(-c2cc(Cl)ccc2Cl)c1 [PCB52] , what is its reported activity at 0.01 µM?
Output: 103
